system name: HLA-A*02:01 (Homo sapiens, UniProt P04439, D140Y/D185E/D98H/E176V/E277Q/G131W/G231S/I119V/I121R/I166T/I218V/L300P/L318F/N151K/N90K/P208A/P217A/Q86G/Q94H/R138H/R169H/T345S)
assay: MHC binding assay (UV-ligand exchange, β2m ELISA, peptide exchange yield)
details: binding of HLA-class I restricted peptides to HLA-A*02:01, UV-ligand exchange
outcome measure: Peptide exchange (MHC class I binding score, peptide exchange yield)

substance: 509 (FLFDTKPLIV; listed as Homo sapiens) [compound 509]
result: “+++” (≥50 = +++)
//
substance: 43 (VLSSLEINI; listed as Homo sapiens) [compound 43]
result: “++” (≥20% = ++)
//
substance: 248 (FLFPNQYVDV; listed as Homo sapiens) [compound 248]
result: “+++” (≥50 = +++)
//
substance: 554 (LLMPSSEDLLL; listed as Homo sapiens) [compound 554]
result: “+++” (≥50 = +++)
//
substance: 49 (YLPAVFEEV; listed as Homo sapiens) [compound 49]
result: “+++” (≥50 = +++)
//
substance: 302 (ALLQEGEVYSA; listed as Homo sapiens) [compound 302]
result: “+++” (≥50 = +++)
//
substance: 537 (TLAPGEVLRSV; listed as Homo sapiens) [compound 537]
result: “+++” (≥50 = +++)
//
substance: 471 (YLYNNMIAKI; listed as Homo sapiens) [compound 471]
result: “+++” (≥50 = +++)
//
substance: 241 (SLVEVNPAYSV; listed as Homo sapiens) [compound 241]
result: “+++” (≥50 = +++)
//
substance: 613 (RLLPPGAVVAV; listed as Homo sapiens) [compound 613]
result: “+++” (≥50 = +++)

In plain terms, 306 (ALVNVQIPL; listed as Homo sapiens) [compound 306] has a documented Peptide exchange (MHC class I binding score, peptide exchange yield) of “+++” (≥50 = +++)

Lookup result for 403 (KLYDRILRV; listed as Homo sapiens) [compound 403] ; measured Peptide exchange (MHC class I binding score, peptide exchange yield): “++” (≥20% = ++)

Looking up 254 (TLLAFIMEL; listed as Homo sapiens) [compound 254] , I see its Peptide exchange (MHC class I binding score, peptide exchange yield) listed as “+++” (≥50 = +++)

The substance listed as 314 (ALIAEGIALV; listed as Homo sapiens) [compound 314] shows Peptide exchange (MHC class I binding score, peptide exchange yield) equal to “+++” (≥50 = +++)

Per the record, 123 (NLWDLTDASVV; listed as Homo sapiens) [compound 123] has Peptide exchange (MHC class I binding score, peptide exchange yield) of “+++” (≥50 = +++)

The recorded Peptide exchange (MHC class I binding score, peptide exchange yield) for entry 623 (YLVEDIQHI; listed as Homo sapiens) [compound 623] equals “+++” (≥50 = +++)
